Please provide measured Plasma (0.1 μM), activity in % of control for the entries that follow.
- MEASURED ON: Dopamine beta hydroxylase (Homo sapiens, UniProt P09172)
- Construct: 125 μl of plasma; tissue Instituto Português do Sangue Transplantação; host or cells: human plasma from healthy donors
- Sequence (P09172 40-617 limits assumed): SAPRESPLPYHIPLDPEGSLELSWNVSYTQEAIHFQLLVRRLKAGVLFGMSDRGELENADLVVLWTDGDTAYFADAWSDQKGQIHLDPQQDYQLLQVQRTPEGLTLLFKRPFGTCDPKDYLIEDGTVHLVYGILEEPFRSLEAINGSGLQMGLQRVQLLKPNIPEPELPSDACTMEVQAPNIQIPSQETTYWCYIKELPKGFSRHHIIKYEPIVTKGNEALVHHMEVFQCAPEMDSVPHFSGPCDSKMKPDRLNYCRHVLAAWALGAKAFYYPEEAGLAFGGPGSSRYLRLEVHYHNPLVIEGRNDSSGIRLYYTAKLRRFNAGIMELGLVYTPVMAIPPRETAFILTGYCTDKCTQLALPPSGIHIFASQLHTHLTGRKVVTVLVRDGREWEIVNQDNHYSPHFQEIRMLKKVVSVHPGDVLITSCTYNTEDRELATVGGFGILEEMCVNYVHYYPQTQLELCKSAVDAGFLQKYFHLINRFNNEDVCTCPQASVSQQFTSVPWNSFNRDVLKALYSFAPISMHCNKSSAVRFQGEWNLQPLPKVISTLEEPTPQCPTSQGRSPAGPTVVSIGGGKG
- PROTOCOL: Dopamine beta hydroxylase activity in human plasma
- Type: biochemical
- CONDITION: inhibitor 0.1 μM

May I ask what Plasma (0.1 μM), activity in % of control has been recorded for Cn1c(CC(=O)N[C@@H]2CCCOC2)c2n(c1=S)C[C@@]1(c3c(F)ccc(Cl)c3F)C[C@@H]21 [Example 415] ? 2.1 % of control

Field request: Plasma (0.1 μM), activity in % of control | item: Cl.Fc1ccc(Cl)c(F)c1[C@@H]1Cc2c(CCc3cccnc3)[nH]c(=S)n2C1 [Example 215] 34.2 % of control

Which value of Plasma (0.1 μM), activity in % of control has been reported for Cn1c(CC(=O)NCC(F)(F)F)c2n(c1=S)C[C@@]1(c3cc(Cl)ccc3F)C[C@@H]21 [Example 300] in the records? 10.9 % of control

Find the recorded Plasma (0.1 μM), activity in % of control belonging to O=C(Cc1[nH]c(=S)n2c1C[C@@H](c1c(F)ccc(Cl)c1F)C2)Nc1nncs1 [Example 168] and report it. 10.5 % of control

Entry Cn1c(CC(=O)N2CCCCC2)c2n(c1=S)C[C@@]1(c3cc(Br)ccc3F)C[C@@H]21 [Example 312] has what Plasma (0.1 μM), activity in % of control? 51.7 % of control

Given the entry O=C(Cc1[nH]c(=S)n2c1C[C@H](c1c(F)c(F)cc(F)c1F)C2)N[C@H]1CC[C@H](O)CC1 [Example 28] , report its measured Plasma (0.1 μM), activity in % of control. 33.8 % of control

Which Plasma (0.1 μM), activity in % of control is listed for Cn1c(CC(=O)NC2CCOCC2)c2n(c1=S)C[C@@]1(c3cc(Cl)ccc3F)C[C@@H]21 [Example 313] ? 9.6 % of control
